Short version: melting point at least 50 °C is label 1, less is label 0.

Q. Item O=C(O)C=Cc1ccccc1F with melting point of 50 °C or above?
A. label 1

Q. Item COP(=S)(OC)Oc1cc(Cl)c(I)cc1Cl with melting point of 50 °C or above?
A. label 1

Q. Item COc1ccc(C=O)cc1F with melting point of 50 °C or above?
A. label 0

Q. Item CCCCC(=O)OC1(C(=O)CO)C(C)CC2C3CCC4=CC(=O)C=CC4(C)C3(F)C(O)CC21C (centres undefined) with melting point of 50 °C or above?
A. label 1

Q. Item c1ccc(-c2cccc3ccccc23)cc1 with melting point of 50 °C or above?
A. label 0

Q. Item N=c1oc2ccccc2cc1-c1nc2ccccc2c(=O)[nH]1 with melting point of 50 °C or above?
A. label 1

Q. Item Cc1cccc(NC(=O)C(C(F)(F)F)(C(F)(F)F)C(F)(F)F)c1 with melting point of 50 °C or above?
A. label 1

Q. Item C=CCC1=C(C)C(OC(=O)C2C(C=C(C)C)C2(C)C)CC1=O (centres undefined) with melting point of 50 °C or above?
A. label 0

Q. Item ClCc1ccc(Cl)nc1 with melting point of 50 °C or above?
A. label 0

Q. Item O=C1C=C(NCc2ccc(Cl)cc2)C(=O)c2ccccc21 with melting point of 50 °C or above?
A. label 1

Q. Item CC(C)(C)N(NC(=O)c1ccccc1)C(=O)c1ccc(C#N)cc1 with melting point of 50 °C or above?
A. label 1

Q. Item CCCCCCCCCCCCCCCCCCCC(=O)OC with melting point of 50 °C or above?
A. label 1

Q. Item CCOC1C(=O)NC2=C(C1=O)C(c1ccc(Br)cc1)c1c(c3ccccc3oc1=O)O2 (centres undefined) with melting point of 50 °C or above?
A. label 1

Q. Item CN(C)C(=O)NC1CC2CC1C1CCCC21 (centres undefined) with melting point of 50 °C or above?
A. label 1

Q. Item COC(=O)C(C)O (centres undefined) with melting point of 50 °C or above?
A. label 0

Q. Item c1ccc(-c2ccc3c4c(c5c(c3c2)CCCC5)CCCC4)cc1 with melting point of 50 °C or above?
A. label 1

---

measure-name: melting point (°C)
The reply should contain only the number, in °C.

Q. Consider the compound shown here: ON=Cc1ccc(F)cc1 What is its recorded melting point?
A. 83.5

Q. Consider the compound shown here: FC(F)OCC(F)(F)C(F)(F)F What is its recorded melting point?
A. -107

Q. Consider the compound shown here: CCOP(=S)(OCC)Oc1cc(C)nc(N(CC)CC)n1 What is its recorded melting point?
A. 15

Q. Consider the compound shown here: CCCCc1c(C)nc(NCC)nc1OS(=O)(=O)N(C)C What is its recorded melting point?
A. 50.5

Q. Consider the compound shown here: CC(C)(CC(=O)O)C(=O)O What is its recorded melting point?
A. 140

Q. Consider the compound shown here: CC(C)=CCCC(C)=CC=CC(C)=CC=CC(C)=CC=CC=C(C)C=CC=C(C)C=CC=C(C)CCC=C(C)C What is its recorded melting point?
A. 175

Q. Consider the compound shown here: CC(C)C(C)C=CC(C)C1CCC2C3=CC=C4CC(O)CCC4(C)C3CCC21C (stereo not drawn) What is its recorded melting point?
A. 170

Q. Consider the compound shown here: COc1ccc(Br)c2c1C(=O)C2 What is its recorded melting point?
A. 74
